test_description: Cytotoxicity against human TZM-bl cells assessed as cell viability at 10 ug after 48 hrs by MTT assay
Type: cell-based
measurement_setup: read-out: Activity
Provide the reported viability at 48 h, 10 ug of each item.
Give bare numbers, in %.

mol: O=C1Nc2ccc(OC(F)(F)F)cc2[C@]12C[C@H]2CO
assay_value: 90

mol: O=C1Nc2ccc([N+](=O)[O-])cc2[C@]12C[C@H]2CCl
assay_value: 102

mol: O=C1Nc2ccc(OC(F)(F)F)cc2[C@]12C[C@H]2CCl
assay_value: 91

mol: Cc1ccc2c(c1)[C@]1(C[C@H]1CO)C(=O)N2
assay_value: 102

mol: O=C1Nc2ccccc2[C@]12C[C@H]2CO
assay_value: 99

mol: O=C1Nc2ccc([N+](=O)[O-])cc2[C@]12C[C@H]2CO
assay_value: 100

Field: next compound
Task: Return the recorded viability at 48 h, 10 ug value; entry: Cc1ccc2c(c1)[C@]1(C[C@H]1CCl)C(=O)N2
Output: 93
